B1: Membrane-associated guanylate kinase, WW and PDZ domain-containing protein 1, residues 352 to 401; numbered along this chain, Q96QZ7 (parent)
chain: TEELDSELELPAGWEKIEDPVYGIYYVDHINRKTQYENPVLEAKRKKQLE

variants of: B1; assay: abundance fitness (aPCA) (normalised: wild type 0, dead -1); higher = more abundant; growth selection in yeast, the domain comes from the species named; conditions: Homo sapiens
I would appreciate it if you labelled entries class 1 when abundance fitness is -0.3 or higher, otherwise class 0.

Below are worked cases with known answers.
{"variant-label": "K33F", "label-class": "class 0"}
{"variant-label": "E18R", "label-class": "class 0"}
{"variant-label": "D28M", "label-class": "class 0"}

Determine whether this variant has abundance fitness no lower than -0.3: `E42I`
class 1

# repeat for `L8A`
class 1
